systemName: T1, Pertussis toxin (PT) (Bordetella pertussis, UniProt P04977 35-269; P04978 28-226; P04979 29-227; P0A3R5 43-152; P04981 35-133)
T1 construct: mature; also called purified PT; biotinylated PT
testSummary: BIAcore 2000, 2.5-100 nM peptide over PT amine coupled to a CM5 chip (6000 RU), HBS/EP, room temperature
Where no end group is shown, it is not given here. The star is where a group is joined. Biotin = O=C1N[C@H]2[C@H](CS[C@H]2CCCCC(=O)*)N1; AEEA = NCCOCCOCC(=O)O
measurementType: pKd
The scale used: pKd is minus the common logarithm of the concentration in molar units.

// pKd lookup, binder = {Biotin-AEEA}-RSNVIPLNEVWYDTGWDRPHRSRLSIDDDA (also called pp26 peptide 9; pp26 clone 9) [synthetic biotinylated peptide pp26 9 n (Seq # 197588-1)] , result: 8.12
